target: T1, Human Aβ(1–42)-HiLyte^TM-Fluor555 (human, UniProt P05067 672-713, HiLyte^TM-Fluor555 dye covalently bound to ASP1 (NH2-terminus amino acid)); assay: other fluorescence titration; His6 added to 10 nM Aβ(1–42) HiLyte-Fluor555 in solution; increase in dye fluorescence (ex 520 nm, em 567 nm) at the end of the kinetics (2000 s); 50 mM HEPES, 100 mM KCl, 50 µM CaCl2, pH 7.05, 24–25 °C; settings: both partners purified
T1 construct: Amyloid β peptide Aβ(1–42), human, cut product of the amyloid precursor protein; numbers count on: the Aβ peptide; source: bought: AnaSpec
pEC50: −log10 of the molar value.
metric_name: pEC50

>>> result("HHHHHH (hexa-histidine; source: bought: Quimigen) [hexa-histidine peptide (His6)]")
"7.22 to 7.30"
